assayed system: 5-HT2C receptor (Homo sapiens, UniProt P28335)
Construct: expressed in transfected cells; host or cells: HEK293T
Sequence (P28335 33-458): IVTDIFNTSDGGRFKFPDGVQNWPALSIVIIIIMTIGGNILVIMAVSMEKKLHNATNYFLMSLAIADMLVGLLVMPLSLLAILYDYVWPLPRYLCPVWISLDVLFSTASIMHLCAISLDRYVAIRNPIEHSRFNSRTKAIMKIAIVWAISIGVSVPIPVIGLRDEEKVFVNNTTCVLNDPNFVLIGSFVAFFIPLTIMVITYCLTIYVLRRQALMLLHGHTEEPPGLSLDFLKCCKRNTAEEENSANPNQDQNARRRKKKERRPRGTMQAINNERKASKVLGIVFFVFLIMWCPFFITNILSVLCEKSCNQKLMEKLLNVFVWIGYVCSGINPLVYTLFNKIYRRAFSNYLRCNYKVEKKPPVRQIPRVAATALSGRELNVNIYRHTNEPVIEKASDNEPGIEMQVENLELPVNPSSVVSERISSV
assay details: cell-based
endpoint: EC50 (nM)
One number for each entry, in nM.

>  <molecule>
CN(C)CCc1c[nH]c2c(CCF)ccc(O)c12 [Compound 8]

>  <assayed system>
5-HT2C receptor (Homo sapiens, UniProt P28335)

>  <value units>
nM

>  <EC50>
3930

$$$$
>  <molecule>
Cc1ccc(O)c2c(CCN(C)C(C)C)c[nH]c12 [Compound 16]

>  <assayed system>
5-HT2C receptor (Homo sapiens, UniProt P28335)

>  <value units>
nM

>  <EC50>
53

$$$$
>  <molecule>
Cc1c(F)cc(O)c2c(CCN(C)C)c[nH]c12 [Compound 33]

>  <assayed system>
5-HT2C receptor (Homo sapiens, UniProt P28335)

>  <value units>
nM

>  <EC50>
1.4

$$$$
>  <molecule>
CN(C)CCc1c[nH]c2cc(F)cc(O)c12 [Compound 36]

>  <assayed system>
5-HT2C receptor (Homo sapiens, UniProt P28335)

>  <value units>
nM

>  <EC50>
1.7

$$$$
>  <molecule>
Cc1ccc(O)c2c(CCN(C)C)c[nH]c12 [Compound 1]

>  <assayed system>
5-HT2C receptor (Homo sapiens, UniProt P28335)

>  <value units>
nM

>  <EC50>
6.9

$$$$
>  <molecule>
Cc1ccc(O)c2c(CCN(C)C3CC3)c[nH]c12 [Compound 17]

>  <assayed system>
5-HT2C receptor (Homo sapiens, UniProt P28335)

>  <value units>
nM

>  <EC50>
3.2

$$$$

Please state, for each entry, its recorded EC50.
1. CCc1ccc(O)c2c(CCN(C)C)c[nH]c12 [Compound 9]
2. CC(C)c1ccc(O)c2c(CCN(C)C)cn(C)c12 [Compound 11]
3. CCN(C)CCc1c[nH]c2c(C)ccc(O)c12 [Compound 14]
4. CN(C)CCc1c[nH]c2c(C#N)ccc(O)c12 [Compound 64]
5. Cc1ccc(OP(=O)(O)O)c2c(CCN(C)C)c[nH]c12 [Compound 24]

Result:
1. 28
2. 22
3. 4.2
4. 88
5. 370

---

assayed system: 5-HT2B receptor (Homo sapiens, UniProt P41595)
Construct: expressed in transfected cells; host or cells: HEK293T
Sequence (P41595 whole entry): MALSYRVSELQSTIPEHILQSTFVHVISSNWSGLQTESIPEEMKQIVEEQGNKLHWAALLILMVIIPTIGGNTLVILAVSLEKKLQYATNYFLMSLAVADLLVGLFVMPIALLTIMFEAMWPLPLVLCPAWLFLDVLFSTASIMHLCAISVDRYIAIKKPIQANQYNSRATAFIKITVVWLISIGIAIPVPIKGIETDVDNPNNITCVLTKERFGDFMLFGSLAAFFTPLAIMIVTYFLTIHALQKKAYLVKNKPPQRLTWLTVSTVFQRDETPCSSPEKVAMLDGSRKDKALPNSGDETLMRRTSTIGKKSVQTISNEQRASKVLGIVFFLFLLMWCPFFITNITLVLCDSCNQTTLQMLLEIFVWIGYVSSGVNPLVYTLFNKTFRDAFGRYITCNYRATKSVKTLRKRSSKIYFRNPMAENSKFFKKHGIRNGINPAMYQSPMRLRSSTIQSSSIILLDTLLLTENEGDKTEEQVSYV
assay details: Serotonin receptor 5-HT2 functional assay (Gq dissociation BRET or Gq-dependent calcium flux), 5-HT2B
Assay type: cell-based
condition label: Table 4; relative to 4-hydroxytryptamine; at least three replicate trials; read-out: 5-HT2B BRET EC50
Structures can show the parent of a compound that is named as a salt.
endpoint: pEC50
Give bare numbers, as −log10 of the molar value.

Some entries whose results are on file:
>  <molecule>
Cc1ccc(O)c2c(C[C@H]3CCN3C)c[nH]c12 [Compound 77]

>  <assayed system>
5-HT2B receptor (Homo sapiens, UniProt P41595)

>  <quantitative readout>
7.24

$$$$
>  <molecule>
CN(C)CCc1cn2c3c(cccc13)OCC2 [Compound 135, Hydrochloride]

>  <assayed system>
5-HT2B receptor (Homo sapiens, UniProt P41595)

>  <quantitative readout>
7.97

$$$$

Please state, for each entry, its recorded pEC50.
1. Cc1cc2c(c3c(CCN)c[nH]c13)CCCO2 [Compound 110]
2. NCCc1c[nH]c2cccc(O)c12 [4-hydroxytryptamine, reference compound]

Result:
6.86
9.10

---

assayed system: UniProtKB P47898
Sequence (P47898 whole entry): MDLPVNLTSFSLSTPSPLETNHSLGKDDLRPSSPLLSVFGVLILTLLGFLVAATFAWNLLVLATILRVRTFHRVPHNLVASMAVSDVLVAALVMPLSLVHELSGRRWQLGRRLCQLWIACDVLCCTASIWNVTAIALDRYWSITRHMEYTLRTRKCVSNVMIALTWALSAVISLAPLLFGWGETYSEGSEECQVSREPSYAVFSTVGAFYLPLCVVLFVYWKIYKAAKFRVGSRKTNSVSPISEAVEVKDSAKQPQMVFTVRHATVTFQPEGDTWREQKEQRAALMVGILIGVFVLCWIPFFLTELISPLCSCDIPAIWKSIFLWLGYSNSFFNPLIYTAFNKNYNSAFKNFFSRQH
assay details: Functional activity at other receptor sites relative to psilocin (Table 5), further receptors
condition label: read-out: 5-HT5A EC50, 5-HT5A receptor, compared with psilocin
endpoint: EC50 (µM)
One number for each entry, in µM.

Query: Need EC50 of Cc1ccc(O)c2c(CCN(C)C)c[nH]c12 [drawing 38] , thanks.
Result: 23

---

assayed system: 5-HT2A receptor (Homo sapiens, UniProt P28223)
Construct: expressed in transfected cells; host or cells: HEK293T
Sequence (P28223 whole entry): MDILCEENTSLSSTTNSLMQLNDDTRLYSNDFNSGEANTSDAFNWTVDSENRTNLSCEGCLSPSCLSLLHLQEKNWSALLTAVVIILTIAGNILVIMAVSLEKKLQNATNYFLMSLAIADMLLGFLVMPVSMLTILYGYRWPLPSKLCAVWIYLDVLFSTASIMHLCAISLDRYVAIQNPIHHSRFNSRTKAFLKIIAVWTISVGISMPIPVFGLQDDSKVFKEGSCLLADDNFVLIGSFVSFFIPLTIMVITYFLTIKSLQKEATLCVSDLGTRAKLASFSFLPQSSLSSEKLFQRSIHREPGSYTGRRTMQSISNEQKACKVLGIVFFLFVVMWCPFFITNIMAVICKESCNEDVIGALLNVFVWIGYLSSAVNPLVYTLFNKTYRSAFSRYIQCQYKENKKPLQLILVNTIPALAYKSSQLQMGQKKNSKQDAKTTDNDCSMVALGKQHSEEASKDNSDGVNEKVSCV
assay details: Serotonin receptor 5-HT2 functional assay (Gq dissociation BRET or Gq-dependent calcium flux), 5-HT2A
Type: cell-based
condition label: Table 4; relative to 4-hydroxytryptamine; at least three replicate trials; read-out: 5-HT2A BRET EC50
Where a name gives a salt, the structure may show the parent alone.
endpoint: pEC50
One number for each entry, as −log10 of the molar value.

>  <compound>
NCCc1c[nH]c2cccc(O)c12 [4-hydroxytryptamine, reference compound]

>  <pEC50>
8.54

$$$$
>  <compound>
CN(C)CCc1cn2c3c(cccc13)OCC2 [Compound 135, Hydrochloride]

>  <pEC50>
6.12

$$$$

Please state, for each entry, its recorded pEC50.
1. Cc1ccc(OCc2ccc(C(F)(F)F)cc2)c2c(CCN(C)C)c[nH]c12
2. Cc1cc2c(c3c(CCN)c[nH]c13)CCCO2
3. CN(C)CCc1c[nH]c2c(CCO)ccc(O)c12
4. Cc1ccc(O)c2c(C[C@H]3CCN3C)c[nH]c12

Result:
1: 5.12; 2: 6.56; 3: 7.12; 4: 7.31

---

assayed system: 5-HT2C receptor (Homo sapiens, UniProt P28335)
Construct: expressed in transfected cells; host or cells: HEK293T
assay details: cell-based
condition label: Table 5; 5-HT2C receptor; compared with psilocin; read-out: 5-HT2C EC50
endpoint: pEC50
Numbers only, as −log10 of the molar value.

Query: Need pEC50 of Cc1ccc(O)c2c(CCN(C)C)c[nH]c12 [drawing 38] , thanks.
Result: 8.16

---

assayed system: 5-HT2B receptor (Homo sapiens)
Construct: expressed in transfected cells; host or cells: HEK293T
assay details: Serotonin receptor 5-HT2 functional assay (Gq dissociation BRET or Gq-dependent calcium flux), 5-HT2B
Format: cell-based
condition label: Table 4; efficacy relative to 4-hydroxytryptamine; at least three replicate trials
endpoint: 5-HT2B BRET Eff %

>  <compound>
Cc1ccc(OCc2ccc(C(F)(F)F)cc2)c2c(CCN(C)C)c[nH]c12

>  <assayed system>
5-HT2B receptor (Homo sapiens)

>  <5-HT2B BRET Eff %>
inactive

$$$$
>  <compound>
NCCc1c[nH]c2cccc(O)c12 [4-hydroxytryptamine, reference compound]

>  <assayed system>
5-HT2B receptor (Homo sapiens)

>  <5-HT2B BRET Eff %>
100%

$$$$
>  <compound>
CC(C)c1ccc(O)c2c(CCN(C)C)cn(C)c12

>  <assayed system>
5-HT2B receptor (Homo sapiens)

>  <5-HT2B BRET Eff %>
inactive

$$$$
>  <compound>
CC(C)c1ccc(O)c2c(CCN(C)C)c[nH]c12

>  <assayed system>
5-HT2B receptor (Homo sapiens)

>  <5-HT2B BRET Eff %>
inactive

$$$$

Lab note: next compound to report on.
Query: Need 5-HT2B BRET Eff % of COc1cc(F)c(C)c2[nH]cc(CCN(C)C)c12 , thanks.
Result: inactive

---

assayed system: 5-HT6 receptor (Homo sapiens, UniProt P50406)
Sequence (P50406 whole entry): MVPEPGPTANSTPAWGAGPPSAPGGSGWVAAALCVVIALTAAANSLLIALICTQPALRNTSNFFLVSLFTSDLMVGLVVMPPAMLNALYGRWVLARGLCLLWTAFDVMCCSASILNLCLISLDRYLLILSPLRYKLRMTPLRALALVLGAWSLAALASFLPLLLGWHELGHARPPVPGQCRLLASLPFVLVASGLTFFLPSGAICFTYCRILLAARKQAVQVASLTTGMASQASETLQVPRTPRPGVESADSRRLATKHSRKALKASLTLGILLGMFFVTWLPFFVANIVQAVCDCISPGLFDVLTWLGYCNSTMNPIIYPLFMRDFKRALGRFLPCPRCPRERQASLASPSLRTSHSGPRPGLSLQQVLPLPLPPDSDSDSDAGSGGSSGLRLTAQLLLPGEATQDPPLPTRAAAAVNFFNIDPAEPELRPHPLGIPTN
assay details: Functional activity at other receptor sites relative to psilocin (Table 5), 5-HT6
endpoint: pEC50
Give bare numbers, as −log10 of the molar value.

>  <compound>
Cc1ccc(O)c2c(CCN(C)C)c[nH]c12 [drawing 38]

>  <pEC50>
8.05

$$$$

Query: Which measured pEC50 belongs to CN(C)CCc1c[nH]c2cccc(O)c12 [drawing 39] , tested on 5-HT6 receptor (Homo sapiens, UniProt P50406)?
Result: 6.74

---

Can you tell me pEC50 for the items I'm about to list?
assayed system: other receptor sites (Homo sapiens, UniProt P34969)
Sequence (P34969 whole entry): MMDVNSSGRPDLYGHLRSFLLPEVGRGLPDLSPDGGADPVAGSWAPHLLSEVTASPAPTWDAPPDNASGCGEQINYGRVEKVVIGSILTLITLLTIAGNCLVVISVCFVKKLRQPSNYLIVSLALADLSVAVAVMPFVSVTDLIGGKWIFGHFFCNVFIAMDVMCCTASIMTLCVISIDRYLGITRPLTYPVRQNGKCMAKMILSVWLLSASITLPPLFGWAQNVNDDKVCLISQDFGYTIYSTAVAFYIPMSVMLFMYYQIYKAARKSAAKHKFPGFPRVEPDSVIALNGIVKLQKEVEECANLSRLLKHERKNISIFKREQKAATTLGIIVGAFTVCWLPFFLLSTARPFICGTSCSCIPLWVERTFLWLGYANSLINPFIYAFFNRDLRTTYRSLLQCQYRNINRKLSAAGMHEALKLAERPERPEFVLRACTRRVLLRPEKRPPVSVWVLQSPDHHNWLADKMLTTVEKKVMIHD
assay details: Functional activity at other receptor sites relative to psilocin (Table 5), further receptors
condition label: read-out: 5-HT7 EC50, 5-HT7 receptor, compared with psilocin
Numbers only, as −log10 of the molar value.

>  <compound>
Cc1ccc(O)c2c(CCN(C)C)c[nH]c12 [drawing 38]

>  <assayed system>
other receptor sites (Homo sapiens, UniProt P34969)

>  <pEC50>
8.28

$$$$

Query: Which measured pEC50 belongs to CN(C)CCc1c[nH]c2cccc(O)c12 [drawing 39] , tested on other receptor sites (Homo sapiens, UniProt P34969)?
Result: 6.28

---

assayed system: 5-HT2C receptor (Homo sapiens, UniProt P28335)
Construct: expressed in transfected cells; host or cells: HEK293T
assay details: cell-based
endpoint: pEC50
Give bare numbers, as −log10 of the molar value.

Please state, for each entry, its recorded pEC50.
1. COc1ccc(C)c2[nH]cc(CCN(C)C)c12
2. NCCc1c[nH]c2cccc(O)c12 [4-hydroxytryptamine, reference compound]

Result:
[8.46, 9.46]

Please state, for each entry, its recorded pEC50.
1. CC(C)c1ccc(O)c2c(CCN(C)C)c[nH]c12
2. COc1cc(F)c(C)c2[nH]cc(CCN(C)C)c12

Result:
7.47
8.74

Query: Need pEC50 of Cc1cc(O)c2c(CCN(C)C)c[nH]c2c1 , thanks.
Result: 8.82
